# Assay Overview: qHTS assay to identify small molecule antagonists of the progesterone receptor (PR) signaling pathway - cell viability counter screen (AID 1346798); note: nearly all actives have a fitted effect of over 50% in size; note: potency is the fitted concentration of half-maximal effect
# Measurement Context: PR-UAS-bla HEK293T viability, CellTiter-Glo luminescence, 16 h; series mostly up to 92.4 µM
Inconclusive results are not listed. Calls of active or inactive are those of the source. Calls come from the whole dose curve; as a rule, active = well fitted cell-killing curve with a large enough effect in the repeat runs; inconclusive = weak or mixed curves, or effect the other way; inactive = no such curve, though single readings can be large or run the other way.
Measured Quantity: Potency

CC(=O)[O-].CC(=O)[O-].[Hg+2]    1.37 µM (active)
O=C(CCCN1CCC2(CC1)C(=O)NCN2c1ccccc1)c1ccc(F)cc1    inactive
CCN(CC)C(=S)[S-].CCN(CC)C(=S)[S-].[Zn+2]    1.21 µM (active)
COc1cccc2c1C(=O)c1c(O)c3c(c(O)c1C2=O)C[C@@](O)(C(=O)CO)CC3OC1CC(N2CCOC(OC)C2)C(O)C(C)O1 (some centres not stated)    0.266 µM (active)
[CH3][Hg][Cl]    inactive

Need Potency of CC1(C)CN=C(NN=C(/C=C/c2ccc(C(F)(F)F)cc2)/C=C/c2ccc(C(F)(F)F)cc2)NC1 , thanks. 38.6 µM (active)

Need Potency of CCOC(=O)OC1=C(c2cc(C)ccc2C)C(=O)NC12CCC(OC)CC2 (configuration not stated) , thanks. inactive

Need Potency of CC(Cl)CN(C)C (configuration not stated) , thanks. inactive

Need Potency of COC[C@H](C)N(C(=O)CCl)c1c(C)csc1C , thanks. inactive

Need Potency of CC(=O)c1ccc(-c2ccccc2)cc1 , thanks. inactive

Need Potency of N#C/C=C/c1ccccc1 , thanks. inactive

Need Potency of COc1ccc(/C(=C/C(=O)N2CCOCC2)c2ccc(Cl)cc2)cc1OC , thanks. inactive

* * *

# Assay Overview: qHTS assay to identify small molecule agonists of the AP-1 signaling pathway - cell viability counter screen (AID 1159525); note: nearly all actives have a fitted effect of over 55% in size
# Measurement Context: ME-180 (cervical carcinoma) AP-1-bla cells viability, ATP luminescence, 5 h; series mostly up to 76.8 µM
Results filed as inconclusive are left out. Calls of active or inactive are those of the source. Calls come from the whole dose curve.
Bench note: report the call from 1 (active), 0 (inactive)

Take a look at these entries with their results.
CC1(C)C(/C=C(\Cl)C(F)(F)F)C1C(=O)OC(C#N)c1cccc(Oc2ccccc2)c1 (stereo not drawn)    0
CC(C)C1CCC(Cc2ccc(Cl)cc2)C1(O)Cn1cncn1 (stereo not drawn)    1
Cc1cc(C(F)(C(F)(F)F)C(F)(F)F)ccc1NC(=O)c1cccc(I)c1C(=O)NC(C)(C)CS(C)(=O)=O    0
CC(=O)c1ccc(-c2ccccc2)cc1    0
O=[N+]([O-])c1ccc2ccc3cccc4ccc1c2c34    0

Lab note: next compound to report on.
Look up the recorded call for CC(C)[C@H](C(=O)O[C@H](C#N)c1cccc(Oc2ccccc2)c1)c1ccc(Cl)cc1 in this test. 0

* * *

# Assay Overview: A CellTox Green Cytotoxicity Assay to monitor cytotoxicity in HEK293 cells - 16 hour (AID 1224888); note: nearly all actives have a fitted effect of over 35% in size
# Measurement Context: CellTox Green fluorescence; series mostly up to 76.8 µM
Records with an inconclusive call do not appear. Calls of active or inactive are those of the source. Calls come from the whole dose curve; as a rule, active = well fitted activation curve with a large enough effect in the repeat runs; inconclusive = weak or mixed curves; inactive = flat fitted curve, though single readings scatter.
Bench note: report the call from true = active, false = inactive

Take a look at these entries with their results.
COS(=O)(=O)c1ccc(C)cc1    false
CC(=[OH+])/C=C(/C)[O-].CC(=[OH+])/C=C(\C)[O-].CC(=[OH+])/C=C(\C)[O-].[Fe]    false
BrCBr    false

Look up the recorded call for O=C(Cl)c1ccc(Cl)cc1 in this test. false
